- Test system: HepG2 cells
- ASSAY REMARKS: Test Example 2: inhibition of apolipoprotein B secretion from HepG2 cells, ELISA (also used for metabolites in Test Example 8)
- Type: cell-based
- CONDITIONS USED: Homo sapiens, 24 hours, apo B in supernatant by ELISA, read-out: Test Example 2 Inhibition of apo B secretion IC50
VALUE TYPE: pIC50
Note on pIC50: it is the negative log10 of concentration, concentration in mol/L.

Worked examples follow.
{"MOLECULAR STRING": "CCOC(=O)C(CCOC(=O)c1ccc(OC(=O)c2ccccc2-c2ccc(C(F)(F)F)cc2)cc1)(C(=O)OCC)c1ccccc1", "ASSAYED SYSTEM": "HepG2 cells", "OBSERVED RESULT": 6.38}
{"MOLECULAR STRING": "CCNC(=O)C(CCOC(=O)Cc1cccc(NC(=O)c2ccccc2-c2ccc(C(F)(F)F)cc2)c1OC)(C(=O)NCC)c1ccccc1", "ASSAYED SYSTEM": "HepG2 cells", "OBSERVED RESULT": 8.89}
{"MOLECULAR STRING": "CCOC(=O)C(COC(=O)Cc1ccc(NC(=O)c2ccccc2-c2ccc(C(F)(F)F)cc2)c(NC(=O)OC)c1)(C(=O)OCC)c1ccccc1", "ASSAYED SYSTEM": "HepG2 cells", "OBSERVED RESULT": 9.02}
{"MOLECULAR STRING": "CCOC(=O)C(CCOC(=O)Cc1cccc(NC(=O)c2ccccc2-c2ccc(C(F)(F)F)cc2)c1C(=O)OC)(C(=O)OCC)c1ccccc1", "ASSAYED SYSTEM": "HepG2 cells", "OBSERVED RESULT": 8.28}
{"MOLECULAR STRING": "CCNC(=O)C(COC(=O)Cc1ccc(NC(=O)c2ccccc2-c2ccc(C(F)(F)F)cc2)c(C(C)C)c1)(C(=O)NCC)c1ccccc1", "ASSAYED SYSTEM": "HepG2 cells", "OBSERVED RESULT": 9.23}

# context switch: different molecule, same pIC50
Measured pIC50, CCNC(=O)C(COC(=O)Cc1ccc(NC(=O)c2ccccc2Oc2ccccc2)cc1)(C(=O)NCC)c1ccccc1 : 6.28

---

- Test system: HepG2 cells
- ASSAY REMARKS: Test Example 2: inhibition of apolipoprotein B secretion from HepG2 cells, ELISA (also used for metabolites in Test Example 8)
- Assay type: cell-based
- CONDITIONS USED: Homo sapiens, 24 hours, apo B in supernatant by ELISA, read-out: Test Example 2 Inhibition of apo B secretion IC50
pIC50: −log10 of the molar value.
Respond with Fulfilled for pIC50 values of 8 and above, Not fulfilled for values below.

{"MOLECULAR STRING": "CCOC(=O)C(COC(=O)Cc1cc(C(=O)N(C)C)c(NC(=O)c2ccccc2-c2ccc(C(F)(F)F)cc2)cc1F)(C(=O)OCC)c1ccccc1", "ASSIGNED CLASS": "Fulfilled"}
{"MOLECULAR STRING": "CC(C)OC(=O)C(COC(=O)Cc1ccc(NC(=O)c2ccccc2-c2ccc(C(F)(F)F)cc2)cc1)(C(=O)OC(C)C)c1ccccc1", "ASSIGNED CLASS": "Not fulfilled"}

Prompt: In plain terms: is recorded pIC50 at least 8 for CCOC(=O)C(CCOC(=O)Cc1cccc(NC(=O)c2ccccc2-c2ccc(C(F)(F)F)cc2)c1C)(C(=O)OCC)c1ccccc1 ?
Response: Not fulfilled
